Tested on: Diabrotica balteata (Corn Root Worm)
experiment_summary: Diabrotica balteata (corn root worm), sprayed maize sprouts
Assay type: in vivo
recorded_conditions: 96 h, application rate of 200 ppm, L2 larvae on maize sprouts, 4 days after infestation
readout_name: mortality at 200 ppm

Report its mortality at 200 ppm with Diabrotica balteata (Corn Root Worm) as the test system: `CCS(=O)(=O)c1cc(-n2ccccc2=O)cnc1-c1nc2cc(C(F)(F)F)ncc2n1C` ≥ 80%

Report its mortality at 200 ppm with Diabrotica balteata (Corn Root Worm) as the test system: `CCS(=O)(=O)c1cc(-c2ncccc2C)cnc1-c1nc2cc(C(F)(F)F)ncc2n1C` ≥ 80%

Report its mortality at 200 ppm with Diabrotica balteata (Corn Root Worm) as the test system: `CCS(=O)(=O)c1cc(-c2ccnc(C(F)(F)F)c2)cnc1-c1nc2cc(C(F)(F)F)ncc2n1C` ≥ 80%

The reported numbers originate from patent US9809587B2.
